# Tested on: SD rats
# assay.method.text: Taste disorder test (quinine water versus tap water intake)
# Format: in vivo, rat
# reported.conditions: 10 mg/kg tail intravenous injection, 0-15 min after administration, 0.3 mM quinine hydrochloride water versus tap water
Reported Quinine/tap water (%) values for a set of compounds
metric.name: Quinine/tap water (%) (%^Δ)

CC(C)(Cn1c(=O)cc(Nc2ccc(Oc3ccccn3)cc2)n(Cc2ccc(Cl)cc2)c1=O)C(=O)NS(C)(=O)=O ... 37.18
COC(=O)[C@@H](C)Cn1c(=O)cc(Nc2ccc(Oc3cnccn3)cc2)n(Cc2ccc(Cl)cc2)c1=O ... 41.48
C[C@@H](Cn1c(=O)cc(Nc2ccc(Oc3ccccn3)cc2)n(Cc2ccc(Cl)cc2)c1=O)C(=O)NS(C)(=O)=O ... 39.84
C[C@@H](Cn1c(=O)cc(Nc2ccc(Oc3ncccc3F)cc2)n(Cc2ccc(Cl)cc2)c1=O)C(=O)NS(C)(=O)=O ... 42.53
CS(=O)(=O)NC(=O)C1(Cn2c(=O)cc(Nc3ccc(Oc4ccccn4)cc3)n(Cc3ccc(Cl)cc3)c2=O)CC1 ... 40.22
C[C@@H](Cn1c(=O)cc(Nc2ccc(Oc3cccc(F)n3)cc2)n(Cc2ccc(Cl)cc2)c1=O)C(=O)NS(C)(=O)=O ... 39.61
